EXPERIMENTAL_DETAILS: acute toxicity (LD50)
MEASUREMENT_CONDITIONS: mouse, in vivo, po; mice, observation time 14 days
I'd be grateful if you could share measured LD50 at 336 h for these entries.
Please reply with the bare figure in mg/kg and do not write the unit itself.

According to the records, this compound `O=C(O)/C=C\C(=O)O.c1cnc2c(N3CCSCC3)nc(N3CCNCC3)nc2c1` displays LD50 at 336 h of 413

According to the records, this compound `Cl.Cl.[O-][S+]1CCN(c2nc(N3CCNCC3)nc3cccnc23)CC1` displays LD50 at 336 h of 872

====

EXPERIMENTAL_DETAILS: acute toxicity (LD50)
MEASUREMENT_CONDITIONS: mouse, in vivo, po; mice, p.o., printed with LD50 >250 mg/kg, observation time 14 days; read-out: animals died
Where a name gives a salt, the structure may show the parent alone.
METRIC: mortality at 336 h (%)
Please reply with the bare figure in % and do not write the unit itself.

According to the records, this compound O=S1(=O)CCN(c2nc(N3CCNCC3)nc3cccnc23)CC1 [M, dihydrochloride] displays mortality at 336 h of 0

According to the records, this compound [O-][S+]1CCN(c2nc(N3CCNCC3)c3ncccc3n2)CC1 [O] displays mortality at 336 h of 0

According to the records, this compound Cl.Cl.c1cnc2c(N3CCCCC3)nc(N3CCSCC3)nc2c1 [N, dihydrochloride] displays mortality at 336 h of 0

====

Tested on: bleeding time
EXPERIMENTAL_DETAILS: prolongation of the bleeding time (method of Duke)
Format: in vivo
MEASUREMENT_CONDITIONS: Mus musculus, po, 1 h; non-anesthetized mice, 10 mgm/kg per os, after one hour, compared to untreated animals
Counter-ions that a name gives are not always drawn.
METRIC: change in vivo at 10 mg/kg (%)
Please reply with the bare figure in % and do not write the unit itself.

According to the records, this molecule CN1CCN(c2nc(N3CC[S+]([O-])CC3)c3ncccc3n2)CC1 [D, dihydrochloride] displays change in vivo at 10 mg/kg of 88

According to the records, this molecule CN1CCN(c2nc(N3CCSCC3)c3ncccc3n2)CC1 [B, dihydrochloride] displays change in vivo at 10 mg/kg of 118

According to the records, this molecule O=S1(=O)CCN(c2nc(N3CCNCC3)nc3cccnc23)CC1 [M, dihydrochloride] displays change in vivo at 10 mg/kg of 98

According to the records, this molecule O=C(O)/C=C\C(=O)O.c1cnc2c(N3CCSCC3)nc(N3CCNCC3)nc2c1 [A, maleate] displays change in vivo at 10 mg/kg of 171

According to the records, this molecule OCCCN(CCCO)c1nc(N2CCOCC2)c2ncccc2n1 [J, dihydrochloride] displays change in vivo at 10 mg/kg of 45

====

EXPERIMENTAL_DETAILS: acute toxicity (LD50)
MEASUREMENT_CONDITIONS: mouse, in vivo, po; mice, observation time 14 days
Counter-ions that a name gives are not always drawn.
I'd be grateful if you could share measured LD50 at 336 h for these entries.

According to the records, this compound `[O-][S+]1CCN(c2nc(N3CCNCC3)c3ncccc3n2)CC1` displays LD50 at 336 h of > 250 mg/kg

According to the records, this compound `Cl.Cl.c1cnc2c(N3CCCCC3)nc(N3CCSCC3)nc2c1` displays LD50 at 336 h of > 250 mg/kg

According to the records, this compound O=S1(=O)CCN(c2nc(N3CCNCC3)nc3cccnc23)CC1 [M, dihydrochloride] displays LD50 at 336 h of > 250 mg/kg
